- test target: human Spleen Associated Tyrosine Kinase (Syk), SYK (gene 6850) (UniProt P43405)
- protocol summary: NVS_ENZ_hSyk: NovaScreen (NVS) Enzymatic Assay for human Spleen Associated Tyrosine Kinase (Syk)
Inconclusive results are not listed. Active and inactive are the calls of the source. Rule for the calls: active = hit-call score of the fitted dose curve at least 0.9, where 1 is the maximum; inconclusive = response in the unintended direction; inactive = score below 0.9.
Outcome codes: active, inactive

>>> assigned_label("CNc1cnn(-c2cccc(C(F)(F)F)c2)c(=O)c1Cl")
"inactive"
>>> assigned_label("S=C(S)NCCNC(=S)S.[Mn+2].[S-]C([S-])=NCCN=C([S-])[S-].[Zn+2]")
"active"
>>> assigned_label("CC[C@H](C)[C@H]1O[C@]2(C=C[C@@H]1C)C[C@@H]1C[C@@H](C/C=C(\\C)[C@@H](O[C@H]3C[C@H](OC)[C@@H](O[C@H]4C[C@H](OC)[C@@H](NC)[C@H](C)O4)[C@H](C)O3)[C@@H](C)/C=C/C=C3\\CO[C@@H]4[C@H](O)C(C)=C[C@@H](C(=O)O1)[C@]34O)O2")
"inactive"
>>> assigned_label("CCOCN(C(=O)CCl)c1c(C)cccc1CC")
"inactive"
>>> assigned_label("O=C(O)C1(C(=O)Nc2ccc(Cl)cc2Cl)CC1")
"active"

Reference for the values: PubChem BioAssay AID2283221
